Molecular target: human CB1 receptor (Homo sapiens, UniProt P21554)
Construct: expressed in transfected cells; host or cells: SK-N-MC cells, stably transfected with pcDNA3 CB-1 (human); semi-purified membrane pellet
Sequence (P21554 whole entry): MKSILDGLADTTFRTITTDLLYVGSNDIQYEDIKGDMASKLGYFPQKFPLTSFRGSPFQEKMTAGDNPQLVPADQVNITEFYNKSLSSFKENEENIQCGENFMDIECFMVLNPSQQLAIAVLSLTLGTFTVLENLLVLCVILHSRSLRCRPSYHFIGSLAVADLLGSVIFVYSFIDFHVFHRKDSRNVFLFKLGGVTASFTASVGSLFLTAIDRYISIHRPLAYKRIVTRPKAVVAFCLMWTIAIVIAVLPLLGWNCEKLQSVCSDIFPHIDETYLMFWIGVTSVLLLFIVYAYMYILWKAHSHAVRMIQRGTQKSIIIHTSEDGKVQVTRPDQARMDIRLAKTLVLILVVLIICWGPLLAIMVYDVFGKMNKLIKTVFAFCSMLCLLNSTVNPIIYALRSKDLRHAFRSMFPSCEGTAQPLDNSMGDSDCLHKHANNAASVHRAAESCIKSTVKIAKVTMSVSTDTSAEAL
Experiment: Binding assay for CB1 agonists or inverse agonists, [3H]-CP-55,940 displacement on membranes of transfected SK-N-MC cells
assay-readout: pIC50
Notebook: values listed as pIC50 are -log10 of the concentration (mol/L).

C[C@@H](NC(=O)[C@@H]1CCCc2c1nn(-c1ccc(Cl)cc1Cl)c2-c1ccc(F)cc1)c1ccccc1 : 8.70
O=C(NN1CCCCC1)C1CCCc2c1nn(-c1ccc(Cl)cc1Cl)c2-c1ccc(Cl)cc1 (stereo not shown) : 7.41
C[C@@H](NC(=O)C1CCCc2c1nn(-c1ccc(Cl)cc1Cl)c2-c1ccc(Cl)s1)C1CCCCC1 (stereo partly shown) : 8.40
COc1ccc(-c2c3c(nn2-c2ccc(Cl)cc2Cl)C(C(=O)N[C@H](C)c2ccccc2)CCC3)cc1 (stereo partly shown) : 8.10
CC12CCC(C1)C(C)(C)C2NC(=O)C1CCCc2c1nn(Cc1ccccc1)c2-c1ccc(Cl)cc1 (stereo not shown) : 5.26
O=C(NN1CCCCCC1)C1CCCc2c1nn(-c1ccc(Cl)cc1Cl)c2-c1ccc(Cl)cc1 (stereo not shown) : 7.46

Result for C[C@@H](NC(=O)C1CCCc2c1nn(-c1ccc(Cl)cc1Cl)c2-c1ccc(Cl)cc1)C1CCCCC1 (stereo partly shown) , tested on human CB1 receptor (Homo sapiens, UniProt P21554), pIC50: 9.00

Result for CC(NC(=O)C1CCCc2c1nn(Cc1ccccc1)c2-c1ccc(Cl)cc1)C12CC3CC(CC(C3)C1)C2 (stereo not shown) , tested on human CB1 receptor (Homo sapiens, UniProt P21554), pIC50: 5.21

Result for Cc1ccc(-c2c3c(nn2Cc2ccccc2)C(C(=O)NC(C)C24CC5CC(CC(C5)C2)C4)CCC3)cc1 (stereo not shown) , tested on human CB1 receptor (Homo sapiens, UniProt P21554), pIC50: 6.43

Result for C[C@@H](NC(=O)[C@@H]1CCCc2c1nn(-c1ccc(Cl)cc1Cl)c2-c1ccc(Br)s1)c1ccccc1 , tested on human CB1 receptor (Homo sapiens, UniProt P21554), pIC50: 8.40

----------
Each item that follows carries a reported inhibition at 0.2 µM.
Target: human CB1 receptor (Homo sapiens, UniProt P21554)
Construct: expressed in transfected cells; host or cells: SK-N-MC cells, stably transfected with pcDNA3 CB-1 (human); semi-purified membrane pellet
Experiment: Binding assay for CB1 agonists or inverse agonists, [3H]-CP-55,940 displacement on membranes of transfected SK-N-MC cells
Details: read-out: Cannabinoid CB1 Receptor Binding percent inhibition
Just the number please, in %, no unit attached.

Some compounds with known inhibition at 0.2 µM results, for comparison:
C[C@@H](NC(=O)[C@H]1CCCc2c1nn(-c1ccc(Cl)cc1Cl)c2-c1ccc(Br)s1)C1CCCCC1 [Cpd 54] : 35
C[C@@H](NC(=O)[C@H]1CCCc2c1nn(-c1ccc(Cl)cc1Cl)c2-c1ccc(Br)s1)c1ccccc1 [Cpd 52] : 44
COc1ccc(-c2c3c(nn2-c2ccc(Cl)cc2Cl)C(C(=O)NN2CCCCC2)CCC3)cc1 (stereo not shown) [Cpd 21] : 42
COc1ccc(-c2c3c(nn2-c2ccc(Cl)cc2Cl)[C@H](C(=O)N[C@H](C)c2ccccc2)CCC3)cc1 [Cpd 24] : 58
COC[C@H]1CCCN1NC(=O)C1CCCc2c1nn(-c1ccc(Cl)cc1Cl)c2-c1ccc(OC)cc1 (stereo partly shown) [Cpd 32] : 46
C[C@@H](NC(=O)[C@H]1CCCc2c1nn(-c1ccc(Cl)cc1Cl)c2-c1ccc(Br)cc1)c1ccccc1 [Cpd 45] : 66

Note: attention shifts to another entry.
Result for COc1ccc(-c2c3c(nn2-c2ccc(Cl)cc2Cl)C(C(=O)NN2CC4CCCC4C2)CCC3)cc1 (stereo not shown) [Cpd 28] , tested on human CB1 receptor (Homo sapiens, UniProt P21554), inhibition at 0.2 µM: 59

----------
Biological target: human CB2 receptor (Homo sapiens, UniProt P34972)
Construct: expressed in transfected cells; host or cells: SK-N-MC cells, stably transfected with pcDNA3 CB-2 (human); semi-purified membrane pellet
Sequence (P34972 whole entry): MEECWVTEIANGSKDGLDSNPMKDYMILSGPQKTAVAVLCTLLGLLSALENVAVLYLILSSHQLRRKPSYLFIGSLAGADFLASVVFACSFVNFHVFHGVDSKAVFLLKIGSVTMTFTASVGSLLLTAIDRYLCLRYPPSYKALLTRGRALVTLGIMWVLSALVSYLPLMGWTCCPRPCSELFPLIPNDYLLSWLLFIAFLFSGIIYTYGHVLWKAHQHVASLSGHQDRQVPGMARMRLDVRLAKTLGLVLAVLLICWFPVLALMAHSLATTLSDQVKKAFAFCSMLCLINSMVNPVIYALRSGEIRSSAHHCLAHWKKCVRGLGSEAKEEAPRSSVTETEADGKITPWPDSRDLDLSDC
Assay: Binding assay for CB2 agonists or inverse agonists, [3H]-CP-55,940 displacement on membranes of transfected SK-N-MC cells
Protocol: The human CB1 and CB2 receptors were stably expressed in SK-N-MC cells transfected with pcDNA3 CB-1 (human) or pcDNA3 CB-2 (human). […] On the day of the assay, the pellet was thawed on ice and diluted in assay buffer (50 mM Tris-HCl, 5 mM MgCl2, 2.5 mM EDTA, 0.5 mg/mL fatty acid free bovine serum albumin, pH 7.5). […] The Unifilter plate was dried, a scintillation cocktail was added to each well and the counts representing binding were quantitated in a TopCount scintillation counter. […]
Each item that follows carries a reported IC50.
Just the number please, in nM, no unit attached.

Some compounds with known IC50 results, for comparison:
O=C(N[C@H](CO)c1ccccc1)[C@H]1CCCc2c1nn(-c1ccc(Cl)cc1Cl)c2-c1ccc(Br)s1 : 300
COc1ccc(-n2nc3c(c2-c2ccc(C)cc2)CCCC3C(=O)NC(C)C23CCC4CC(CC4C2)C3)cc1 (stereo not shown) : 2600
Cc1ccc(-c2c3c(nn2Cc2ccccc2)C(C(=O)NC2C4(C)CCC(C4)C2(C)C)CCC3)cc1 (stereo not shown) : 840
CC(NC(=O)C1CCCc2c1nn(Cc1ccccc1)c2-c1cccc(F)c1)C1CCCCC1 (stereo not shown) : 2130
COc1ccc(-n2nc3c(c2-c2ccc(C)cc2)CCCC3C(=O)N[C@@H]2C3CCC(C3)[C@@H]2CO)cc1 (stereo partly shown) : 1570

# IC50 (compound: CC(NC(=O)C1CCCc2c1nn(Cc1ccccc1)c2-c1cccc(F)c1)C12CCC3CC(CC3C1)C2 (stereo not shown) ) is 70

# IC50 (compound: CC(NC(=O)C1CCCc2c1nn(Cc1ccccc1)c2-c1ccc(Cl)cc1)C1CCCCC1 (stereo not shown) ) is 6100

# IC50 (compound: CC(NC(=O)C1CCCc2c1nn(Cc1ccccc1)c2-c1ccc(Cl)cc1)C12CC3CC(CC(C3)C1)C2 (stereo not shown) ) is 1900

# IC50 (compound: Cc1ccc(-c2c3c(nn2Cc2ccccc2)C(C(=O)NC(C)C2CCCCC2)CCC3)cc1 (stereo not shown) ) is 1100

# IC50 (compound: O=C(N[C@H](CO)c1ccccc1)[C@@H]1CCCc2c1nn(-c1ccc(Cl)cc1Cl)c2-c1ccc(Br)s1 ) is 300

# IC50 (compound: Cc1ccc(-c2c3c(nn2Cc2ccccc2)C(C(=O)NC(C)C24CC5CC(CC(C5)C2)C4)CCC3)cc1 (stereo not shown) ) is 800

# IC50 (compound: CC12CCC(C1)C(C)(C)[C@H]2NC(=O)C1CCCc2c1nn(Cc1ccccc1)c2-c1cccc(F)c1 (stereo partly shown) ) is 290

# IC50 (compound: CC12CCC(C1)C(C)(C)C2NC(=O)C1CCCc2c1nn(Cc1ccccc1)c2-c1ccc(Cl)cc1 (stereo not shown) ) is 3900

----------
Target: human CB2 receptor (Homo sapiens, UniProt P34972)
Construct: expressed in transfected cells; host or cells: SK-N-MC cells, stably transfected with pcDNA3 CB-2 (human); semi-purified membrane pellet
Experiment: Binding assay for CB2 agonists or inverse agonists, [3H]-CP-55,940 displacement on membranes of transfected SK-N-MC cells
Conditions: read-out: Cannabinoid CB2 Receptor Binding percent inhibition
Each item that follows carries a reported inhibition at 0.2 µM.
Just the number please, in %, no unit attached.

Some molecules with known inhibition at 0.2 µM results, for comparison:
C[C@@H](NC(=O)[C@@H]1CCCc2c1nn(-c1ccc(Cl)cc1Cl)c2-c1ccc(Cl)cc1)c1ccccc1 : 11
C[C@@H](NC(=O)[C@@H]1CCCc2c1nn(-c1ccc(Cl)cc1Cl)c2-c1ccc(Br)cc1)c1ccccc1 : 28
C[C@@H](NC(=O)C1CCCc2c1nn(-c1ccc(Cl)cc1Cl)c2-c1ccc(Br)cc1)C1CCCCC1 (stereo partly shown) : 21

# inhibition at 0.2 µM (molecule: O=C(NN1CCCCC1)[C@@H]1CCCc2c1nn(-c1ccc(Cl)cc1Cl)c2-c1ccc(Br)cc1 ) is 27

# inhibition at 0.2 µM (molecule: COc1ccc(-c2c3c(nn2-c2ccc(Cl)cc2Cl)C(C(=O)N[C@H](C)c2ccccc2)CCC3)cc1 (stereo partly shown) ) is 28

# inhibition at 0.2 µM (molecule: C[C@@H](NC(=O)[C@@H]1CCCc2c1nn(-c1ccc(Cl)cc1Cl)c2-c1ccc(F)cc1)c1ccccc1 ) is 14

# inhibition at 0.2 µM (molecule: C[C@@H](NC(=O)C1CCCc2c1nn(-c1ccc(Cl)cc1Cl)c2-c1ccc(F)cc1)C1CCCCC1 (stereo partly shown) ) is 0
